assay: CNS and lung tissue concentrations after oral dosing in rats; type: in vivo; conditions: both sexes, Sprague Dawley, rat, brain (CNS tissue); SD rats, oral gavage, 150 mg/kg/day, day 15, 3 h post-dose; read-out: Mean 404-02 CNS Tissue Content (ng/g = ng/mL) ± SEM
measurement name: concentration at 3 h (ng/g)
Express it in ng/g; write the number only.

Look up concentration at 3 h for this molecule: "CC1(C)CC[C@]2(C(=O)NCC(F)(F)F)CC[C@]3(C)[C@H](C(=O)C[C@@H]4[C@@]5(C)C=C(C#N)C(=O)C(C)(C)[C@@H]5CC[C@]43C)[C@@H]2C1"
640
